- Target entity: TcHGXPRT (Trypanosoma cruzi)
- Sequence (Q4DRC3 1-231): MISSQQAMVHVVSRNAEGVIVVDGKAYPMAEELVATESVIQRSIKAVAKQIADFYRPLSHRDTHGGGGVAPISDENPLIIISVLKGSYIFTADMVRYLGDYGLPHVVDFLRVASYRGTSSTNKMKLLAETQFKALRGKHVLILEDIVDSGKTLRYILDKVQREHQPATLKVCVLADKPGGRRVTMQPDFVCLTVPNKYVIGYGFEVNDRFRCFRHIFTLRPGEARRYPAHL
- Experiment description: Initial rate studies of TcHGXPRT, GMP biosynthesis
- Format: biochemical
- Setup conditions: Ki,PRPP, variable substrate Guanine (10–300 μM) at fixed PRPP levels
Property name: pKi
API: returns pKi as number; meaning -log10 of concentration in mol/L.

Ask | Return the recorded pKi value; entry: O=P(O)(O)OC[C@H]1O[C@H](OP(=O)(O)OP(=O)(O)O)[C@H](O)[C@@H]1O [PRPP, 5-phospho-D-ribose 1-pyrophosphate]
Reply | 6.15

* * *

- Target entity: TcHGXPRT (Trypanosoma cruzi, UniProt Q4DRC3)
- Experiment description: Dead-end inhibition studies of TcHGXPRT
- Format: biochemical
Property name: pKi
API: returns pKi as number; meaning -log10 of concentration in mol/L.

Ask | Return the recorded pKi value; entry: O=c1[nH]c(=O)c2[nH]ccc2[nH]1 [9-deazaxanthine]
Reply | 4.15

* * *

- Target entity: UniProtKB Q4DRC3
- Experiment description: Product inhibition studies of TcHGXPRT
- Format: biochemical
- Setup conditions: read-out: Kis; PPi vs. variable Xan, PRPP 1 mM
Property name: Ki (µM)
// return numeric value only (unit: µM, not printed)

Ask | Find the measured Ki of O=P(O)(O)OP(=O)(O)O [PPi, pyrophosphate] with UniProtKB Q4DRC3 as test system.
Reply | 190
